Listed below are compounds with IC50 for Aurora kinase B (Homo sapiens, UniProt Q96GD4), each taken from published literature.

Reference set, count: 7
                                  structure  endpoint       result
0  O=C1Nc2ccccc2/C1=C\c1ccc2c(-c3cccs3)n[nH]c2c1      IC50    < 5000 nM
1  Cc1cc(Nc2cc(N3CCN(C)CC3)nc(-c3cc(F)cc(F)c3)n2)n[nH]1      IC50    ≤ 1000 nM
2         Nc1ccc(NC(=O)c2ccccc2C(F)(F)F)cc1      IC50  1 to 300 nM
3  COc1c(F)cc([C@@H](CN2CCC2)Nc2ncnc3c(C(N)=O)cccc23)cc1F      IC50       280 nM
4  CN1CCN(c2ccc3cc2[C@@H](O)CS[C@@H]2C[C@@H]4C[C@H]2[C@@H](Nc2nc(ncc2F)N3)[C@H]4C(N)=O)CC1      IC50  1 to 100 nM
5  Clc1ccc(-c2nnc(Nc3ccc(Sc4ccnc5ccnn45)cc3)c3ccccc23)nc1      IC50     < 100 nM
6  NC(=O)c1cccc2c(N[C@H](CN3CCC3)c3ccc(F)cc3Cl)ncnc12      IC50       107 nM

Okay, next one:
Exercise: Recorded IC50 for O=C(N[C@H](c1ccccc1)C1CC1)c1ccc2[nH]nc(-c3ccc(N4CCOCC4)cc3)c2c1 , please?
Solution: ≤ 5000 nM

* * *

Literature compilation of pIC50 measurements on Aurora kinase B (Homo sapiens).
pIC50: −log10 of the molar value.

Exercise: Give its pIC50 value. Item: COc1cc2c(Oc3ccc(NC(=O)c4ccccc4)cc3)ccnc2cc1OCCC[C@@H](N)C(=O)OC1CCCC1
Solution: 5.30 to 5.70

Exercise: Follow-up item: COC(=O)/C=C/c1n[nH]c2cc(/C=C3/C(=O)Nc4ccccc43)ccc12
Solution: > 5.30

Exercise: Check COc1ccc2c(c1)[C@@]1(C[C@@H]1c1ccc3c(-c4ccc(N5CCC(N(C)C)CC5)cc4)n[nH]c3c1)C(=O)N2 (racemic) too.
Solution: > 7.00

Exercise: Subsequent entry: COc1ccc2c(c1)/C(=C\c1ccc3c(C#Cc4cccnc4)n[nH]c3c1)C(=O)N2
Solution: > 5.30

Exercise: Request: N#Cc1cccc([C@@H](CN2CCC2)Nc2ncnc3c(C(N)=O)cccc23)c1
Solution: 6.16

Exercise: And what about the compound CN1CCN(c2ccc3cc2[C@H](O)CS[C@@H]2C[C@@H]4C[C@H]2[C@@H](Nc2nc(ncc2F)N3)[C@H]4C(N)=O)CC1 ?
Solution: 7.00 to 9.00

Exercise: Moving on to Cc1noc(C2(Cc3ccc(F)c(Nc4cc(C)[nH]n4)n3)CCN(C(=O)c3cccc(Cl)c3F)CC2)n1
Solution: 6.41

* * *

// compounds with IC50 on Aurora kinase B (Homo sapiens, UniProt Q96GD4), multi-source literature

Exercise: Missing value: IC50, Aurora kinase B (Homo sapiens, UniProt Q96GD4), entry CN1CCC(Oc2ccc(-c3n[nH]c4ccc(NC(=O)C(c5ccsc5)N5CCCC5)cc34)cc2Cl)CC1 (stereo not drawn) . Fill in?
Solution: ≤ 5000 nM

Exercise: Query COc1cc2c(Oc3ccc(NC(=O)c4ccc(C(F)(F)F)cc4)cc3)ccnc2cc1OCC[C@H](N)C(=O)OC1CCCC1 next
Solution: < 2000 nM

Exercise: Same for COc1cc(-c2n[nH]c3ccc(C(=O)NC(c4ccccn4)C4CC4)cc23)ccc1OC1CCN(C2COC2)CC1 (stereo not drawn)
Solution: ≤ 5000 nM

Exercise: Record: COc1cc2c(Oc3ccc(NC(=O)c4ccccc4)cc3)ccnc2cc1OCC[C@H](N)C(=O)OC(C)(C)C
Solution: 2000 to 5000 nM

Exercise: What would you report for COc1cc2c(Oc3ccc(NC(=O)c4ccccc4)cc3)ccnc2cc1OCC[C@H](N)C(=O)O ?
Solution: < 2000 nM

Exercise: Please answer likewise for O=C(c1cccc(Cl)c1F)N1CCN(Cc2cccc(Nc3nccs3)n2)CC1
Solution: 440 nM

Exercise: What do we get for CN1CCC(Oc2ccc(-c3n[nH]c4ccc(C(=O)N[C@@H](CCO)c5ccccc5)cc34)cc2)CC1 ?
Solution: ≤ 5000 nM

Exercise: Field entry: COc1ccccc1/C=C/c1n[nH]c2cc(C=C3C(=O)Nc4ccccc43)ccc12 (mixture of isomers)
Solution: < 5000 nM

Exercise: O=C(c1cccc(Cl)c1Cl)N1CCN(Cc2cccc(Nc3nccs3)n2)CC1 ?
Solution: 200 nM

Exercise: Entry CN1CCN(c2ccc3cc2C(=O)NC[C@@H]2C[C@@H]4C[C@H]2[C@@H](Nc2nc(ncc2F)N3)[C@H]4C(N)=O)CC1 please
Solution: 101 to 1000 nM

Exercise: Then COC(=O)c1cnc(C(C(N)=O)=C2Nc3ccccc3N2)nc1C(F)(F)F ?
Solution: 10 nM

* * *

Header: IC50 / UniProt Q96GD4 / multiple publications

See these solved cases before continuing.
>>> print(df.to_string())
                                   compound     test_system     result
0  COc1ccc2c(c1)[C@]1(CC1c1ccc3c(/C=C/c4cc(F)c(CN(C)C)c(F)c4)n[nH]c3c1)C(=O)N2 (stereo in doubt)  UniProt Q96GD4   < 100 nM
1  CN1CCC(Oc2ccc(-c3n[nH]c4ccc(NC(=O)C(c5cccs5)N5CCCC5)cc34)cc2)CC1 (centres unmarked)  UniProt Q96GD4  ≤ 5000 nM
2  O=CN1CCC(Oc2ccc(-c3n[nH]c4ccc(C(=O)N[C@H](c5ncccc5Cl)C5CC5)cc34)cc2)CC1  UniProt Q96GD4  ≤ 5000 nM
3  COc1cc(OC[C@H]2CCCCN2)c2c(Nc3cnn(CC(=O)Nc4cccc(F)c4F)c3)ncnc2c1  UniProt Q96GD4     1.4 nM

Exercise: I would be grateful if you could share the reported IC50 for COc1cc2c(cc1OC)/C(=C\c1ccc3c(/C=C/c4ccncc4)n[nH]c3c1)C(=O)N2 .
Solution: < 5000 nM

Exercise: Next record, please: COc1ccc2c(c1)[C@]1(C[C@H]1c1ccc3c(-c4ccc(CN5CCN(C)CC5)cc4)n[nH]c3c1)C(=O)N2 (relative stereo)
Solution: < 100 nM

* * *

Endpoint summary: IC50, system: Aurora kinase B (Homo sapiens), multiple sources combined.

Take a look at these entries with their results.
>>> print(df.to_string())
                                   compound      result
0  COc1cc2c(Oc3ccc(NC(=O)c4ccccc4)cc3OC)ccnc2cc1OCC[C@H](N)C(=O)O   2 to 5 µM
1  COc1ccc(-c2nc(C(N)=O)c(-c3ccc(N4CCNC(C)(C)C4)cc3)o2)c2cc[nH]c12  0.00878 µM
2    O=C1Nc2ccc(F)cc2/C1=C\c1ccc2cn[nH]c2c1      < 5 µM

Please look at the following compound next.
Exercise: Which IC50 value belongs to CC1(O)CCN(c2ccc(-c3n[nH]c4ccc(NC(=O)C(c5ccsc5)N5CCCC5)cc34)cc2)CC1 (stereo not shown) ?
Solution: ≤ 5 µM

* * *

# pIC50 against Aurora kinase B (Homo sapiens, UniProt Q96GD4), merged from multiple literature sources
pIC50: −log10 of the molar value.

See these solved cases before continuing.
In [3]: df
Out[3]:
                                   molecule        result
0  Cc1cc(Nc2cc(N3CCN(C)CC3)nc(-c3ccc4c(c3)OCCO4)n2)n[nH]1        ≥ 6.00
1  COc1ccc2c(c1)/C(=C\c1ccc3c(-c4cnc(N5CCN(C)CC5)nc4)n[nH]c3c1)C(=O)N2        > 5.30
2  COc1cc([C@@H](CN2CCC2)Nc2ncnc3c(C(N)=O)cccc23)ccc1F          7.16
3  COc1cc2c(Oc3ccc(NC(=O)c4ccccc4)c(F)c3)ccnc2cc1OCC[C@H](N)C(=O)O  5.30 to 5.70
4  O=C(NC(c1ccsc1)C1CC1)c1ccc2[nH]nc(-c3ccc(OC4CCN(CCO)CC4)cc3)c2c1 (stereo not drawn)        ≥ 5.30
5  CN1CCN(c2ccc3cc2C(=O)CS(=O)(=O)[C@@H]2C[C@@H]4C[C@H]2[C@@H](Nc2nc(ncc2F)N3)[C@H]4C(N)=O)CC1  5.20 to 6.00

Exercise: Suppose we examine the molecule COc1ccc2c(c1)[C@]1(C[C@H]1c1ccc3c(-c4ccnc(N5CCN(C)CC5)c4)n[nH]c3c1)C(=O)N2 (relative stereo) ; what pIC50 value has been reported?
Solution: > 7.00

Exercise: Another molecule to look at: COc1cc2c(Oc3ccc(CC(=O)Nc4ccccc4)cc3)ccnc2cc1OCC[C@H](N)C(=O)O
Solution: 5.30 to 5.70

Exercise: Thanks! And NC(=O)[C@H]1[C@@H]2CC3CNCc4cccc(c4)Nc4ncc(F)c(n4)N[C@@H]1[C@@H]3C2 (stereo partly drawn) ?
Solution: 7.00 to 9.00

Exercise: And then NC(=O)[C@H]1[C@H]2C[C@H]3[C@H]1Nc1nc(ncc1F)Nc1cccc(c1)CCN[C@@H]3C2 , what is it?
Solution: 7.00 to 9.00

Exercise: Then this molecule: COc1cc2c(Oc3ccc(NC(=O)c4ccccc4)cc3)ccnc2cc1OCC[C@@H](N)C(=O)O
Solution: > 5.70

Exercise: How about COCCN1CCC(Oc2ccc(-c3n[nH]c4ccc(C(=O)N[C@H](c5cccs5)C5CC5)cc34)cc2)CC1 ?
Solution: ≥ 5.30

Exercise: Also NC(=O)c1cccc2c(N[C@H](CN3CCC3)c3cccc(F)c3)ncnc12 ?
Solution: 7.35

Exercise: Also need O=C(Nc1ccc2[nH]nc(-c3ccc(N4CCC(O)CC4)cc3)c2c1)C(c1ccsc1)N1CCCC1 (stereo not drawn) , thanks.
Solution: ≥ 5.30

Exercise: Would you kindly repeat that for O=C(c1cccc(Cl)c1F)N1CCN(Cc2cc(-c3nn[nH]n3)cc(Nc3nccs3)n2)CC1 ?
Solution: 6.00
